# Assay Details: Apparent permeability across human Caco2 cells with low TEER resistance at 500 uM after 1 hr by HPLC-DAD analysis
# Format: ADME, cell-based
# Stated Conditions: Caco-2
Readout Type: Papp at 1 h, 500 µM (×10⁻⁶ cm/s)

{"columns": ["Molecule", "Papp at 1 h, 500 µM [×10⁻⁶ cm/s]"],
 "data": [
  ["O=C(/C=C/c1ccc(O)c(O)c1)O[C@@H]1C[C@](O)(C(=O)O)C[C@@H](OC(=O)/C=C/c2ccc(O)c(O)c2)[C@H]1O", 0.68]
]}

A. O=C(/C=C/c1ccc(O)c(O)c1)O[C@@H]1C[C@](O)(C(=O)O)C[C@@H](O)[C@H]1O
B. COc1cc(/C=C/C(=O)O[C@@H]2C[C@](O)(C(=O)O)C[C@@H](O)[C@H]2O)ccc1O
C. COc1cc(/C=C/C(=O)O)ccc1O [FERULATE]
Inquiry: Would you mind ranking these molecules by ascending Papp at 1 h, 500 µM? When ranking, write the labels in the order the request describes.
Reply text: A, B, C
